Heads up, these molecules all have IC50 values measured for FAS (Homo sapiens, UniProt P49327).

chem_smiles | result_units | IC50
O=C1COC2(CCN(S(=O)(=O)c3ccc(-c4ccc5cccnc5c4)cc3)CC2)CN1C1CC1 | nM | 10
O=C1COC2(CCN(S(=O)(=O)c3ccc(-c4cc5ccccc5o4)cc3)CC2)CN1C1CC1 | nM | 200
O=C1COC2(CCN(S(=O)(=O)c3ccc(-c4ccccc4)cc3)CC2)CN1C1CC1 | nM | 1260
O=C1COC2(CCN(S(=O)(=O)c3ccc(-c4ccc5cc[nH]c5c4)cc3)CC2)CN1C1CC1 | nM | 40
